I'd be grateful if you could share measured Apparent diameter (nm) for these entries.
# experiment: Aggregation state / apparent diameter of aggregates
# Assay type: physicochemical
# condition description: pH 2
Answers are plain numbers, in nm.

| compound | experimental endpoint | unit text | observed result |
| --- | --- | --- | --- |
| CCCCCCCCCCCCOc1c2cccc1Cc1cc(CC(=O)O)cc(c1O)Cc1cc(CC(=O)O)cc(c1O)Cc1cc(CC(=O)O)cc(c1O)C2 [compound 5d] | Apparent diameter (nm) | nm | 880 |
| CCCCOc1c2cccc1Cc1cc(CC(=O)O)cc(c1O)Cc1cc(CC(=O)O)cc(c1O)Cc1cc(CC(=O)O)cc(c1O)C2 [compound 5b] | Apparent diameter (nm) | nm | 500 |
| COc1c2cccc1Cc1cc(CC(=O)O)cc(c1O)Cc1cc(CC(=O)O)cc(c1O)Cc1cc(CC(=O)O)cc(c1O)C2 [compound 5a] | Apparent diameter (nm) | nm | 950 |

Turning now to a further record.
[in] Fill in: Apparent diameter (nm) of CCCCCCOc1c2cccc1Cc1cc(CC(=O)O)cc(c1O)Cc1cc(CC(=O)O)cc(c1O)Cc1cc(CC(=O)O)cc(c1O)C2 [compound 5c] is ___
[out] 850

###

# tested on: BmrA (Bacillus subtilis)
# Construct: made in house; host or cells: E. coli C41 BL21(DE3), plasmid pET15b-BMRA; isolated membrane fraction
# Sequence (O06967 whole entry): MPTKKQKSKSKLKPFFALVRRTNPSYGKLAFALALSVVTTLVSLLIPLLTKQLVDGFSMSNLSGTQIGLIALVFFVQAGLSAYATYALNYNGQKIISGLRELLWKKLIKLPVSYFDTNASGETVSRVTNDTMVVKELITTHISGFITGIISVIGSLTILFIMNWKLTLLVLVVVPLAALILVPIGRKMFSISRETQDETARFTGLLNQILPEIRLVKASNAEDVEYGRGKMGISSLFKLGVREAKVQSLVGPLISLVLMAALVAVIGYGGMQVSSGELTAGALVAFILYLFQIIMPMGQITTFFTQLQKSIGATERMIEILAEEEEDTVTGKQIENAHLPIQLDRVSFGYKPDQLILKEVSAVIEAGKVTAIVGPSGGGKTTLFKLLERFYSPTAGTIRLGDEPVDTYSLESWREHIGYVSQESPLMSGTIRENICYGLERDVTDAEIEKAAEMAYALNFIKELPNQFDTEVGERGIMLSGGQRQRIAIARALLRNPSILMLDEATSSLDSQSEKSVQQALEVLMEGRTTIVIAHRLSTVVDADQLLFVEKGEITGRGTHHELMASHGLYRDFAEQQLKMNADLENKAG
# experiment: Solubilization of BmrA from enriched membrane fractions (centrifugation, SDS PAGE)
# Type: biochemical, E. coli membrane fraction
# condition description: detergent 10 mg/ml (1%), 2 mg proteins/ml, 2 hrs at 4° C., FIG. 7
experimental endpoint: Solubilization of BmrA (found in supernatant)

| compound | observed result |
| --- | --- |
| CCCCCCOc1c2cccc1Cc1cc(CC(=O)O)cc(c1O)Cc1cc(CC(=O)O)cc(c1O)Cc1cc(CC(=O)O)cc(c1O)C2 | more pronounced |
| CCCCCCCCCCCCO[C@@H]1O[C@H](CO)[C@@H](O[C@H]2O[C@H](CO)[C@@H](O)[C@H](O)[C@H]2O)[C@H](O)[C@H]1O [DDM, n-dodecyl-β-D-maltopyranoside] | more pronounced |
